assay: folding stability dG unfold from trypsin proteolysis; higher = more stable
Parameter threshold = 0.6 kcal/mol. Response is Yes when folding stability dG unfold meets or exceeds it, else No.

>>> qualitative_label("SAGGSAPWVTLPIIIMFDSPEQAVEEVKPIFQELFGIKDVNVEEEPMPNGMVFVPIEITIPAENMKSAGGSA [r15_173_TrROS]")
"No"
>>> qualitative_label("SAGGSAEEELLKAIKEALEKAKEGETVELEITLEDGSTLRITFDAENGKITVTLPNGEKLELTIEPSAGGSA [r15_977_TrROS_Hall]")
"Yes"
>>> qualitative_label("SAGGSAGGSAGKKVVTIDIPIDNPEELEVAEEIAREAAKELGVPPEEIPVTWEGNYLRIESAGGSAGGSAGG [r11_218_TrMRF]")
"No"
>>> qualitative_label("SIIVEPLPDNTFIAYFPETDSVIEIRVDPSTGKAHAIAELPGEPVEATFDPRKGVLVIELPNGRIVLPLLSA [r9_541_TrMRF]")
"Yes"
>>> qualitative_label("SAGGPDWQTIRITFWFDSPEDAEEEVRNIARTMGLPPEGIKVEITDFEPREVNGKNYYMVEAEITIPSAGGS [r16_240_TrROS]")
"Yes"
>>> qualitative_label("SAGGSADSVMIPVESPEEIKEELQEGPPKRVELPNPDGERYWIQIDWDDPENIEVMPPDDPEKMKPSAGGSA [r15_11_TrROS]")
"Yes"
>>> qualitative_label("SAGGSAGGSAGGMPELTVETEGFPDGSYRVVVTNPGTGELVAVAERPSSTSVADFAKELASAGGSAGGSAGG [r7_633_TrMRF]")
"No"
>>> qualitative_label("SAGGPVLVLVEVEAGFDGRPRLRRLVLPVELRPDGTVDLDAVRRAVEELLPPDWRILRIEVVPPDAPFSAGG [r13_504_TrMRF]")
"Yes"
>>> qualitative_label("SAGGSAGGSAGSMTLSTSTSTTPTSLTTTTTTTTYDPTTGTTTTTSTTTTTALPAAPPSSTASAGGSAGGSA [r18_16_JUSTAS]")
"No"
>>> qualitative_label("SAGGSAGGSAWKKFMLEFPDGRPFMIEIDPDEPGRVKIYPPGNGKEEEIPPDDLKDLKITASAGGSAGGSAG [r3_451_TrROS]")
"No"
>>> qualitative_label("SAGGSFWVFVIEISVKFEQYGDPDGNWKFEIEKVDVKITEIIPIPPEMMDKLREAKAEGMEPEEILSAGGSA [r2_327_TrROS]")
"Yes"
>>> qualitative_label("SAGGSAGGSAGPEIVLEGKPVELEVVEVGDKPVLIARFPDHYVVIDPEPDVIRLFSSEELSAGGSAGGSAGG [r11_9_TrMRF]")
"No"
>>> qualitative_label("SAGGSAGGSAGSTVTLTVDPDTNVATLTAIIGGKPVTATLTFIPNTGKARLPDGTWIDISSAGGSAGGSAGG [r11_395_TrMRF]")
"Yes"
